Form field: viability (one value per entry).
assay.summary: HUVEC growth inhibition – cell-based, human, primary screen (AID 575);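 note: 100% = median of untreated cell wells with 0.1% DMSO on each plate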
condition.label: HUVEC proliferation, CellTiter-Glo luminescence, 72 h; at 10 µM; active compounds read low
Peptide text beside a SMILES is read from it. * marks the point of attachment. Boc = CC(C)(C)OC(=O)*
parameter.measured: viability (%)

| compound | unit.info | reported.value |
| --- | --- | --- |
| CC(C)CN(C(=O)COC(=O)Cc1n[nH]c(=O)c2ccccc12)C1CCS(=O)(=O)C1 (stereo unspecified) | % | 93.6 |
| CC(NC(=O)OC(C)(C)C)C(=O)N1CCCC1C(=O)NC(Cc1ccccc1)C(N)=O (stereo not drawn) (Boc-Ala-Pro-Phe-NH2; configuration not given here) | % | 95.6 |
| CCN(CC)S(=O)(=O)c1ccc(S(=O)(=O)N(Cc2ccccn2)Cc2ccco2)cc1 | % | 90.6 |
| Cc1cccc(-c2c3c(=O)n(C)c(=O)n(C)c3cn2-c2ccc(O)cc2)c1 | % | 108 |
| CCN(CC)c1ccc(-c2nn3c(-c4cccnc4)nnc3s2)cc1 | % | 37 |
| Cc1csc2nc(CSc3nc4ccccc4o3)c(Br)n12 | % | 85.6 |
| COc1ccc(Cc2nn3c(-c4cc(OC)c(OC)c(OC)c4)nnc3s2)cc1 | % | 102 |
| C/C(=N\O)C(=O)NCc1ccccn1 | % | 85.3 |
| Clc1cccc(Nc2c3c(nc4ncnn24)CCC3)c1 | % | 93 |
| COc1ccc(N2CCN(C(c3cccc(OC)c3OC)c3nnnn3C3CCCC3)CC2)cc1 (stereo unspecified) | % | 94.4 |
| Cc1ccccc1S(=O)(=O)Cc1ccc(C(=O)NCc2cccnc2)o1 | % | 97.8 |
| Cc1cccc(N=C2NC(=O)CS2)c1C | % | 87.1 |
| Cc1nn(C(=O)c2cc3sccc3[nH]2)c(C)c1C | % | 74.1 |
| CCN(CC)S(=O)(=O)c1ccc(NC2c3ccccc3C(=O)N2CCN2CCOCC2)cc1 (stereo unspecified) | % | 85.2 |
| COc1ccccc1CNC(=O)CCNC(=O)Cn1ccc2ccccc2c1=O | % | 98.3 |
| O=C(COc1ccc(Cl)cc1)Nc1nc(-c2cccs2)cs1 | % | 79.9 |
| S=C(c1cccs1)N1CCCC1 | % | 96.7 |
| COc1ccc(S(=O)(=O)N2CCCC(C(=O)N3CCCCCC3)C2)cc1 (stereo unspecified) | % | 100 |
| CCn1c(=O)cc(SCC(=O)NCCN2CCN(Cc3ccccc3)CC2)c2ccccc21 | % | 80.5 |
| Cc1ccc(NC(=O)CSc2nnc(NC(=O)CN3CCOCC3)s2)cc1 | % | 98 |
| CC(C)c1nnc(NC(=O)c2cnccn2)s1 | % | 104 |
| O=c1c2nnn(Cc3ccc(Cl)cc3)c2ncn1Cc1ccc(F)cc1 | % | 65.6 |
| COc1ccccc1N(CC(=O)NCc1ccccc1)S(C)(=O)=O | % | 106 |
| Cc1onc(-c2c(Cl)cccc2Cl)c1C(N)=O | % | 100 |
| CCN1CCN(C(c2ccc(F)cc2)c2nnnn2Cc2cccs2)CC1 (stereo unspecified) | % | 89.4 |
| O=C(Cn1nnc(-c2cc(Cl)ccc2-n2cnnn2)n1)N1CCCc2ccccc21 | % | 95.7 |
| CC(NC(=O)Cc1cccs1)c1ccc2c(c1)OCO2 (stereo unspecified) | % | 108 |
| CCc1ccc(C2CC(c3ccccc3)n3ncnc3N2)cc1 (stereo unspecified) | % | 83.1 |
| CCCC(=O)OCCn1c(Br)nc2c1c(=O)[nH]c(=O)n2C | % | 89.4 |
| C=CCSC1=C(C#N)C(c2ccccc2Cl)CC(=O)N1 (stereo unspecified) | % | 103 |
| Cc1ccc(N2C(=O)c3ccccc3C2O)nc1 (stereo unspecified) | % | 59.8 |
| Nn1c(SCC(=O)Nc2ccc3c(c2)OCCO3)nnc1C(F)(F)F | % | 88.3 |
| CC1CN(C(=O)c2scc3c2OCCO3)CC(C)O1 (stereo unspecified) | % | 101 |
| O=C(O)Cn1cc(C(=O)c2ccco2)c2ccccc21 | % | 105 |
| COC(=O)c1cc2oc(C)cc2n1CC(=O)Nc1ccc(C)c(C)c1 | % | 59.5 |
| COc1cc(C)c(-c2cc(C(=O)O)c(C)o2)cc1C(C)C | % | 95.7 |
| O=C(NCCc1ccccn1)c1ccc(COc2ccccc2)o1 | % | 103 |
| CCCCCc1c(O)c2ccccc2[nH]c1=O | % | 124 |
| COc1ccc(-c2noc(CCCC(=O)O)n2)cc1 | % | 97.1 |
| COc1ccccc1C(=O)N1CCN(C(=O)c2ccncc2)CC1 | % | 88.6 |
| CCOC(=O)C1CCN(C(=O)COc2ccc(Cl)cc2Cl)CC1 | % | 101 |
| O=C(Nc1cccc(F)c1)c1cccc(S(=O)(=O)N2CCOCC2)c1 | % | 92.8 |
| CCOC(=O)c1cccc(NC(=O)CSc2nnc(C3CCCCC3)n2C)c1 | % | 92.3 |
| COc1cccc(CN2CCN(C(=O)c3ccco3)CC2)c1OC | % | 118 |
| CCCC(=O)N(Cc1cc2ccccc2[nH]c1=O)c1ccccc1OC | % | 105 |
| O=C(Nc1nccs1)NC(C(F)(F)F)C(F)(F)F | % | 93 |
